# System: GC3 /CL
# Assay procedure: Cytotoxicity of N-substituted phenoxazines to tumor cells (clonogenic survival)
# Assay type: cell-based
# Stated conditions: Homo sapiens, 168 h, 7 days, 37° C., read-out: IC50 (50% reduction in clonogenic survival)
pIC50: −log10 of the molar value.
List of pIC50 values.
Reported metric: pIC50

{"columns": ["Smiles entry", "Numeric value"],
 "data": [
  ["OCCN(CCO)CCCCN1c2ccccc2Oc2ccccc21", 4.80],
  ["c1ccc2c(c1)Oc1ccccc1N2CCCCN1CCCCC1", 5.15],
  ["c1ccc2c(c1)Oc1ccccc1N2CCCCN1CCOCC1", 4.57],
  ["c1ccc2c(c1)Oc1ccccc1N2CCCCN1CCCC1", 5.10]
]}
